Values were extracted from patent US20230129258A1.

Documented Emax (fold induction over background), HT1376 across a set of binders
Biological target: CD137 on Jurkat reporter cells (Promega kit CS196005) (UniProt Q07011 24-255, limits assumed)
Sequence (Q07011 24-255 limits assumed): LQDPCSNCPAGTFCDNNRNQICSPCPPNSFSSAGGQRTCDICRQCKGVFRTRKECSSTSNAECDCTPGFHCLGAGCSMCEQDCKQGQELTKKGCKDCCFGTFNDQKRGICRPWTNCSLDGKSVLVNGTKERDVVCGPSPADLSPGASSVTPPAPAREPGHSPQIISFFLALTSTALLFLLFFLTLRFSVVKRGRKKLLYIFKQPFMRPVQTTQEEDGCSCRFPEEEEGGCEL
Test: cell-based or functional assay
Starred links: 1 amine or outer side, 2 acyl side, 3 side chain; linkers in the order of their positions; H or OH if unused. Positions of bridges follow the written chain, without caps; N, C: chain ends. Non-standard residues stand in square brackets, D forms with d. Groups on a side chain read outwards from the residue. Primed or numbered codes have the meaning given here. Chains are numbered I, II in the order given. No end group written: not given here. *: point of attachment. dLys(PYA) = D-lysine Nε-acylated with 4-pentynoic acid, clicked (triazole) to the linker azide, O=C(CCc1cn([*:3])nn1)NCCCC[C@@H](N[*:1])C(=O)[*:2]; TATA = O=C(CC[*:1])N1CN(C(=O)CC[*:2])CN(C(=O)CC[*:3])C1; Biotin = O=C1N[C@H]2[C@H](CS[C@H]2CCCCC(=O)*)N1; 1Nal = N[C@@H](Cc1cccc2ccccc12)C(=O)O; Hyp = O=C(O)[C@@H]1C[C@@H](O)CN1; hArg = N=C(N)NCCCC[C@H](N)C(=O)O; tBuAla = CC(C)(C)C[C@H](N)C(=O)O; PEG12′ = not defined here; Nle = CCCC[C@H](N)C(=O)O; Pent4ynoyl = C#CCCC(=O)*
measured_endpoint: Emax (fold induction over background), HT1376 (fold over background)

{"binder": "BCY12490 (BCY8928: Ac-(SEQ ID NO: 11)-A; TATA; linker at dLys(PYA)4; BCY12024: Ac-(SEQ ID NO: 14); TATA; linker at dLys3) peptide 1: CPXKCMXDWSTPXWC peptide 2: CXPEXPYCFADPYXCA", "recorded_number": 70}
{"binder": "BCY11022 (not fully specified; BCY8928: Ac-(SEQ ID NO: 11)-A; TATA; linker at dLys(PYA)4; BCY11016: [PYA]-[B-Ala]-(SEQ ID NO: 1); TATA; linker at N-term PYA) peptide 1: CPXDCMXDWSTPXWC peptide 2: CXPEXPYCFADPYXCA", "recorded_number": 66}
{"binder": "BCY13582 (biotinylated BCY11863) (linker I:1-I:5-I:15, II:1-II:8-II:15, III:1-III:8-III:15 via TATA; also: linker at chain B 5 at chain C 5 to a chain's N-terminus via N-(acid-PEG3)-N-bis(PEG3-azide), also called test peptide) peptide 1: CP[1Nal][dD]CM[hArg]DWSTP[Hyp]WC peptide 2: Ac-C[tBuAla]PE[dLys(PYA)]PYCFADPY[Nle]CA peptide 3: Ac-C[tBuAla]PE[dLys(PYA)]PYCFADPY[Nle]CK([PEG12′-Biotin])", "recorded_number": 57}
{"binder": "BCY12487 (linker I:1-I:5-I:15, II:1-II:8-II:15 via TATA; not fully specified (some residues, bridges); also: chain 1 N-terminus and chain 2 dLys(PYA)4 joined by N-(acid-PEG3)-N-bis(PEG3-azide) linker) peptide 1: CP[1Nal]DCM[hArg]DWSTP[Hyp]WC peptide 2: Ac-C[tBuAla]PE[dK](Pent4ynoyl)PYCFAEPY[Nle]C", "recorded_number": 12}
